Source: patent US11613531B2

molecular target: Recombinant ROCK2 (amino acids 1-552) (Homo sapiens (Human)); test: Z′-Lyte kinase assay, ROCK2; assay type: biochemical
Sequence (O75116 1-552): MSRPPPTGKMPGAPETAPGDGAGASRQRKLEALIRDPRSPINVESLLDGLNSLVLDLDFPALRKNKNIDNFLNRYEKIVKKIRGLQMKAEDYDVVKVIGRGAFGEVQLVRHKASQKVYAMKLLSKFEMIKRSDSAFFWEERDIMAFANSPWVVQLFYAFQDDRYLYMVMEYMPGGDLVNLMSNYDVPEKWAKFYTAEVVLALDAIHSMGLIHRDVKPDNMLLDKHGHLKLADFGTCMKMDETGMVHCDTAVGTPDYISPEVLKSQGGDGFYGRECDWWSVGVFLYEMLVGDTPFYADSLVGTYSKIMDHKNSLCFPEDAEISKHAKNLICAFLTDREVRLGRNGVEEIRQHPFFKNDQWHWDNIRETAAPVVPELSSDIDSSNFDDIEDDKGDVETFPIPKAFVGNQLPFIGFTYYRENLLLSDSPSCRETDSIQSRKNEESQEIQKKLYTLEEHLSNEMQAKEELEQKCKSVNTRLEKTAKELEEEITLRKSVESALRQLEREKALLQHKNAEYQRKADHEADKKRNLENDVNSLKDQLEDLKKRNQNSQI
Reported IC50 is given for each of the following compounds.
Give the quantity in nM, number only.

COc1cccc(CNC2CCCN(c3nccc(Nc4ccc5[nH]ncc5c4)n3)C2)c1 (stereo not drawn) [Example 233] : 217

API: the following record is the query input.
Clc1cnc(N2C3CNCC2C3)nc1Nc1ccc2[nH]ncc2c1 [Example 222] has a reported IC50 of 4.9

---

tested on: human ACTA2 gene promoter luciferase reporter in NIH3T3 cells; experiment: NIH3T3 Acta2-promoter driven-luciferase assay; type: cell-based; conditions: NIH3T3, 24 h, with TGFβ1, 24 hr; read-out: NIH3T3 Acta2-luc, IC50
pIC50: −log10 of the molar value.
Use MET when the recorded pIC50 is no lower than 6; use NOT MET when it is lower.

Before answering, review these 6 worked examples.
c1cc(-c2cn[nH]c2)ccc1Nc1nc(N2C3CNCC2C3)nc2c1COCC2 : NOT MET
Fc1cc2[nH]ncc2cc1Nc1nc(N2C3CCC2CNC3)ncc1Cl : NOT MET
Clc1cnc(N2C3CNCC2C3)nc1Nc1ccc2[nH]ncc2c1 : MET
Fc1cc2[nH]ncc2cc1Nc1nc(N2C3CNCC2C3)ncc1Cl : NOT MET
Cc1nc(N2C3CNCC2C3)nc(Nc2ccc3[nH]ncc3c2)c1F : MET
CNC1CC2CC1CN2c1ncc(F)c(Nc2ccc3[nH]ncc3c2)n1 (centres unmarked) : NOT MET

From here, focus on the item given below.
## Task Item Cc1c(Cl)nc(N2C3CCC2CNC3)nc1Nc1ccc2[nH]ncc2c1 with pIC50 of 6 or above?
## Result NOT MET
